As a worked illustration, we turn to MIC data collected for Staphylococcus epidermidis KCTC 1917.
Write the value in µM as a bare number.

// below: answered molecules
MOLECULE | SYSTEM | READOUT_VALUE
CC[C@H](C)[C@H](NC(=O)[C@H](CCCCN)NC(=O)[C@H](CO)NC(=O)[C@H](Cc1ccccc1)NC(=O)[C@H](CC(C)C)NC(=O)[C@H](CCCCN)NC(=O)[C@H](CCC(=O)O)NC(=O)[C@H](CC(C)C)NC(=O)[C@H](CCCN=C(N)N)NC(=O)[C@H](CCCCN)NC(=O)[C@H](Cc1ccccc1)NC(=O)[C@@H](NC(=O)[C@H](CCCCN)NC(=O)[C@H](CCCCN)NC(=O)[C@H](C)N)C(C)C)C(=O)N[C@@H](CCC(N)=O)C(=O)N[C@@H](CC(N)=O)C(=O)N[C@@H](CC(=O)O)C(=O)N[C@@H](CCCCN)C(N)=O [AKKVFKRLEKLFSKIQNDK] | Staphylococcus epidermidis KCTC 1917 | 3.12
C[C@H](NC(=O)[C@H](Cc1c[nH]c2ccccc12)NC(=O)[C@H](CCCCN)NC(=O)[C@H](CCCN=C(N)N)NC(=O)CNC(=O)[C@H](Cc1c[nH]c2ccccc12)NC(=O)[C@H](CCCN=C(N)N)NC(=O)[C@H](CCCN=C(N)N)NC(=O)[C@H](Cc1c[nH]c2ccccc12)NC(=O)CNC(=O)[C@@H](N)CCCN=C(N)N)C(=O)N[C@@H](Cc1cnc[nH]1)C(=O)NCC(=O)N[C@@H](Cc1c[nH]c2ccccc12)C(=O)N[C@@H](CCCCN)C(=O)N[C@@H](CCCCN)C(=O)N[C@@H](Cc1ccc(O)cc1)C(=O)NCC(N)=O [RGWRRWGRKWAHGWKKYG] | Staphylococcus epidermidis KCTC 1917 | 2
NCCCC[C@H](NC(=O)[C@H](CCCN=C(N)N)NC(=O)CN)C(=O)N[C@@H](CCCCN)C(=O)N[C@@H](CCCN=C(N)N)C(=O)N[C@@H](CCCN=C(N)N)C(=O)N[C@@H](CCC(N)=O)C(=O)N[C@@H](CCCN=C(N)N)C(=O)N[C@@H](CCCN=C(N)N)C(=O)N[C@@H](CCCN=C(N)N)C(=O)N1CCC[C@H]1C(=O)N1CCC[C@H]1C(=O)N[C@@H](CCC(N)=O)C(=O)O [GRKKRRQRRRPPQ] | Staphylococcus epidermidis KCTC 1917 | 4
CC(C)C[C@H](NC(=O)[C@H](Cc1c[nH]c2ccccc12)NC(=O)[C@H](CCCN=C(N)N)NC(=O)[C@H](CCCCN)NC(=O)[C@H](Cc1c[nH]c2ccccc12)NC(=O)[C@H](CCCN=C(N)N)NC(=O)[C@H](CCC(N)=O)NC(=O)[C@@H](NC(=O)[C@H](Cc1c[nH]c2ccccc12)NC(=O)[C@H](CCCN=C(N)N)NC(=O)[C@H](CCCCN)NC(=O)[C@@H](N)Cc1c[nH]c2ccccc12)C(C)C)C(=O)N[C@@H](CCCN=C(N)N)C(N)=O [WKRWVQRWKRWLR] | Staphylococcus epidermidis KCTC 1917 | 4

Here is another molecule to look at.
Entry CC(C)C[C@H](NC(=O)[C@H](Cc1c[nH]c2ccccc12)NC(=O)[C@H](CCCCN)NC(=O)[C@H](CC(C)C)NC(=O)[C@H](Cc1c[nH]c2ccccc12)NC(=O)[C@H](CC(C)C)NC(=O)[C@H](CCCCN)NC(=O)[C@H](Cc1c[nH]c2ccccc12)NC(=O)[C@H](CC(C)C)NC(=O)[C@@H](N)CCCCN)C(=O)N[C@@H](CCCCN)C(N)=O [KLWKLWLKWLK] , system Staphylococcus epidermidis KCTC 1917: what MIC was measured?
4

---

These records show MIC for Bacillus subtilis ATCC 23857.
Express the result in µM but write the number alone.

SMILES_DATA | SYSTEM | QUANTITY_MEASURED | UNIT_INFO | READOUT_VALUE
CC[C@H](C)[C@H](NC(=O)[C@H](CCCCN)NC(=O)[C@H](CCCCN)NC(=O)[C@H](C)NC(=O)[C@@H](NC(=O)[C@H](C)NC(=O)[C@H](CC(C)C)NC(=O)[C@H](CC(C)C)NC(=O)[C@H](C)NC(=O)[C@H](CCCCN)NC(=O)[C@H](CC(C)C)NC(=O)[C@H](CC(N)=O)NC(=O)[C@@H](N)CC(C)C)C(C)C)C(N)=O | Bacillus subtilis ATCC 23857 | MIC | µM | 16

Form field: reported MIC of CC[C@H](C)[C@H](N)C(=O)N[C@@H](CC(C)C)C(=O)NCC(=O)N[C@H](C(=O)N[C@H](C(=O)N[C@@H](CC(C)C)C(=O)NCC(=O)N[C@@H](CC(C)C)C(=O)N[C@@H](CC(C)C)C(=O)N[C@@H](CCCCN)C(=O)N[C@@H](CC(N)=O)C(=O)N[C@@H](CC(C)C)C(N)=O)[C@@H](C)CC)[C@@H](C)O
4

State the recorded MIC for this entry: CC[C@H](C)[C@H](N)C(=O)N[C@@H](CC(C)C)C(=O)NCC(=O)N[C@H](C(=O)N[C@H](C(=O)N[C@@H](CC(C)C)C(=O)NCC(=O)N[C@@H](CC(C)C)C(=O)N[C@@H](CC(C)C)C(=O)N[C@@H](CCCCN)C(=O)N[C@H](C(=O)N[C@@H](CC(C)C)C(N)=O)[C@@H](C)O)[C@@H](C)CC)[C@@H](C)O
4

Which MIC is reported for this compound? CC(C)[C@H](N)C(=O)N[C@@H](CCCN=C(N)N)C(=O)N[C@@H](Cc1c[nH]c2ccccc12)C(=O)N[C@@H](Cc1c[nH]c2ccccc12)C(=O)N[C@@H](Cc1c[nH]c2ccccc12)C(=O)N[C@@H](CCCN=C(N)N)C(=O)N[C@H](C(N)=O)C(C)C
8

---

System: Escherichia coli
QUANTITY_MEASURED: MIC (µM)
Report as a plain number; the unit µM is understood.

SMILES_DATA | UNIT_INFO | READOUT_VALUE
CC(C)C[C@H](NC(=O)[C@H](CCCCN)NC(=O)[C@H](CCCN=C(N)N)NC(=O)[C@H](Cc1ccccc1)NC(=O)[C@H](Cc1ccccc1)NC(=O)[C@H](CCCCN)NC(=O)[C@H](CCCCN)NC(=O)[C@H](Cc1ccccc1)NC(=O)[C@H](CCCN=C(N)N)NC(=O)[C@H](CCCCN)NC(=O)[C@@H](N)C(C)C)C(=O)N[C@@H](CCCCN)C(=O)N[C@@H](CCCCN)C(=O)N[C@@H](CO)C(N)=O | µM | 17.4
CC[C@H](C)[C@H](NC(=O)[C@H](CCCCN)NC(=O)[C@H](CCCCN)NC(=O)[C@H](Cc1c[nH]c2ccccc12)NC(=O)[C@@H](NC(=O)[C@@H](N)CC(N)=O)[C@@H](C)CC)C(=O)N[C@@H](Cc1ccccc1)C(=O)N[C@@H](CCC(=O)O)C(=O)N[C@@H](CCCCN)C(=O)N[C@H](C(=O)N[C@@H](CCCCN)C(=O)N[C@@H](CC(N)=O)C(=O)N[C@@H](CC(C)C)C(=O)N[C@H](C(N)=O)C(C)C)C(C)C | µM | 25
CC(C)C[C@H](NC(=O)[C@H](CCCN=C(N)N)NC(=O)[C@@H]1CCCN1C(=O)[C@H](Cc1cnc[nH]1)NC(=O)[C@@H]1CCCN1C(=O)[C@@H]1CCCN1C(=O)[C@H](CCCN=C(N)N)NC(=O)[C@@H]1CCCN1C(=O)[C@H](CCC(N)=O)NC(=O)[C@@H]1CCCN1C(=O)[C@H](CCCN=C(N)N)NC(=O)[C@H](Cc1ccc(O)cc1)NC(=O)[C@@H](NC(=O)[C@@H]1CCCN1C(=O)[C@H](CCCCN)NC(=O)[C@H](CC(N)=O)NC(=O)[C@H](CC(N)=O)NC(=O)CN)C(C)C)C(=O)O | µM | 0.048

# ---- query molecule ----
Requested field: MIC. Item: CC(C)C[C@H](NC(=O)[C@H](CCCN=C(N)N)NC(=O)[C@@H]1CCCN1C(=O)[C@H](Cc1cnc[nH]1)NC(=O)[C@@H]1CCCN1C(=O)[C@@H]1CCCN1C(=O)[C@@H](N)CCCN=C(N)N)C(=O)O
64

---

The following are reported MIC results, target or system Staphylococcus aureus ATCC 25923.
Form entry: value (µM) — number only.

SMILES_DATA | QUANTITY_MEASURED | READOUT_VALUE
CC[C@H](C)[C@H](NC(=O)[C@H](CCCCN)NC(=O)[C@H](CO)NC(=O)[C@H](CO)NC(=O)[C@H](CC(C)C)NC(=O)[C@H](CCCCN)NC(=O)[C@H](CCCCN)NC(=O)[C@H](CC(C)C)NC(=O)[C@H](CC(C)C)NC(=O)[C@H](CCCCN)NC(=O)[C@H](CCC(N)=O)NC(=O)[C@H](Cc1ccc(O)cc1)NC(=O)[C@H](Cc1ccccc1)NC(=O)[C@H](CCC(N)=O)NC(=O)[C@H](CO)NC(=O)[C@H](CCC(=O)O)NC(=O)[C@H](CCCN=C(N)N)NC(=O)[C@H](CC(N)=O)NC(=O)[C@@H]1CCCN1)C(=O)O | MIC | 111
CC[C@H](C)[C@H](NC(=O)[C@H](CCCCN)NC(=O)[C@H](CCCCN)NC(=O)[C@H](CC(C)C)NC(=O)[C@H](CC(C)C)NC(=O)CN)C(=O)N[C@@H](CCCCN)C(=O)N[C@H](C(=O)N[C@@H](CC(C)C)C(=O)N[C@@H](CC(C)C)C(N)=O)[C@@H](C)O | MIC | 19.5

Okay, now this compound:
Find MIC (Staphylococcus aureus ATCC 25923) for the entry CC[C@H](C)[C@H](NC(=O)[C@H](CCCN=C(N)N)NC(=O)[C@H](C)NC(=O)[C@H](CC(C)C)NC(=O)[C@H](CC(C)C)NC(=O)CN)C(=O)N[C@@H](CCCCN)C(=O)N[C@H](C(=O)N[C@@H](CC(C)C)C(=O)N[C@@H](CC(C)C)C(N)=O)[C@@H](C)O
25.5
